Target: recombinant human Aggrecanase-2 Agg2-Phe628 (Homo sapiens, UniProt Q9UNA0)
Sequence (Q9UNA0 262-628 limits assumed): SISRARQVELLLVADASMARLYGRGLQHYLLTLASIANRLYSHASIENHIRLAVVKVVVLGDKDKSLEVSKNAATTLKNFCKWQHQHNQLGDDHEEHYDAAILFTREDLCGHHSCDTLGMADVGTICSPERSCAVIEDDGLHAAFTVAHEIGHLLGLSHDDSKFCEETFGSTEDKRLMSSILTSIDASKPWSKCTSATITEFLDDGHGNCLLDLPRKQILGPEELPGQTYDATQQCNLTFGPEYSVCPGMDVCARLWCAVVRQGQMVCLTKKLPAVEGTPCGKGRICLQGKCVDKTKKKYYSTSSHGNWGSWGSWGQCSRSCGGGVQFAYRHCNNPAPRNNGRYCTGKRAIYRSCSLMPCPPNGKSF
Experiment: Aggrecanase 2 in vitro enzyme assay (Agg-2 FRET, quenched fluorescent peptide substrate)
Format: biochemical
Parameters: purified recombinant human Aggrecanase-2 Agg2-Phe628 (MW=41,737); This is a truncated form of full-length human aggrecanase-2; made in house; host or cells: CHO cells
Conditions: @ 1200 nM
inhibition at […] for assorted compounds
State just the number; it will be interpreted in %.

Below, 3 compounds whose answers are already recorded.
• O=C(COc1ccccc1)NC(c1ccccc1N1CCOCC1)c1cc(Cl)c2cccnc2c1O (stereo not shown) = 43
• O=C(COc1ccccc1)NC(c1ccccc1[N+](=O)[O-])c1cc(Cl)c2cccnc2c1O (stereo not shown) = 58
• O=C(COc1ccccc1)NC(c1ccc(C#Cc2ccccc2)cc1)c1cc(Cl)c2cccnc2c1O (stereo not shown) [Example 141] = 58

Then this compound:
Can you share its inhibition at […]? I mean this compound: COc1ccc(C(NC(=O)Cc2ccccc2)c2cc(Cl)c3cccnc3c2O)cc1OCc1ccccc1 (stereo not shown) 47

###

log10 IC50 for assorted compounds
biological target: recombinant human Aggrecanase-2 Agg2-Phe628 (Homo sapiens); test: Aggrecanase 2 in vitro enzyme assay (Agg-2 FRET, quenched fluorescent peptide substrate); format: biochemical; parameters: purified recombinant human Aggrecanase-2 Agg2-Phe628 (MW=41,737); This is a truncated form of full-length human aggrecanase-2; made in house; host or cells: CHO cells; settings: read-out: Agg2 IC50
log10 IC50, nM

* Cc1ccsc1C(NC(=O)COc1ccccc1)c1cc(Cl)c2cccnc2c1O (centres unmarked) | 3.14
* O=C(COc1ccc(Br)cc1)NC(c1ccccc1)c1cc(Cl)c2cccnc2c1O (centres unmarked) | 4.26
* COc1ccc(Oc2cccc(C(NC(=O)COc3ccccc3)c3cc(Cl)c4cccnc4c3O)c2)cc1 (centres unmarked) | 3.04
* O=C(COc1ccccc1)NC(/C=C/c1ccccc1)c1cc(Cl)c2cccnc2c1O (centres unmarked) | 3.20

Then this compound:
Can you share its log10 IC50? I mean this compound: O=C(CNCc1ccccn1)NC(c1ccccc1)c1cc(Cl)c2cccnc2c1O (centres unmarked) 3.59

###

target: recombinant human Aggrecanase-2 Agg2-Phe628 (Homo sapiens, UniProt Q9UNA0); assay: Aggrecanase 2 enzyme fluorescence polarization assay; details: saturation experiment, 2 nM ligand; read-out: equilibrium dissociation constant between Aggrecanase-2 and fluorescent ligand
readout-type: Kd
Quote the value and follow it with the unit of measurement.

Can you share its Kd? I mean this compound: CN([C@H](CCCCCNC(=O)c1ccc(-c2c3cc(F)c(=O)cc-3oc3cc(O)c(F)cc23)c(C(=O)O)c1)C(=O)NO)S(=O)(=O)c1ccc(OCc2ccccc2)cc1 [Compound C] 60 nM
